# tgt: B1R receptor of rats (rB1R) (Rattus norvegicus, UniProt P97583)
# Construct: host or cells: CHO K1 cells
# Sequence (P97583 whole entry): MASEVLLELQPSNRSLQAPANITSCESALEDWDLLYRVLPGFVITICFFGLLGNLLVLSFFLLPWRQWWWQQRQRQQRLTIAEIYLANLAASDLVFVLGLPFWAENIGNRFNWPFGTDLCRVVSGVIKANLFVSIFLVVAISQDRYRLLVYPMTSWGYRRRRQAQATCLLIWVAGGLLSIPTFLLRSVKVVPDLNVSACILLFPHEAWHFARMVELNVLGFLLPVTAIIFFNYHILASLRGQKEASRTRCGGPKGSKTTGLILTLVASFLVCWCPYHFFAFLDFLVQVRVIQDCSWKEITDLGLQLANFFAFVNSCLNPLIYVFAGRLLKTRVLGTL
# experiment-summary: FLIPR Ca2+ assay (Fluo-4) on CHO K1 cells stably transfected with the B1R gene of rats
# Format: cell-based
# test-context: CHO-K1; test substance 10 μM; agonist Des-Arg9-bradykinin 100 nM; % inhibition compared to the maximum achievable inhibition
# Text: The agonistic or antagonistic action of compounds can be quantified on the bradykinin 1 receptor (B1R) of humans and rats with ectopically expressing cell lines (CHO K1 cells) and with the aid of a Ca^2+-sensitive dye (Fluo-4) in the fluorescent imaging plate reader (FLIPR). […] The agonistic or antagonistic action of substances can be determined on the bradykinin 1 receptor (B1R) of humans and rats by means of the following assay. […]
reported-property: inhibition at 10 µM (%)
Numbers only here, please. The scale is %.

Asked: Quote inhibition at 10 µM reported for O=C(CC1CCCCN1S(=O)(=O)c1cccc(C(F)(F)F)c1)N1CCn2cc(CCc3ccncc3)nc2C1 (centres unmarked) please.
Given back: 102

Asked: Could you please provide reported inhibition at 10 µM for O=C(CC1CCCCN1S(=O)(=O)c1cccc(C(F)(F)F)c1)N1CCn2c(Cc3cccnc3)ccc2C1 (centres unmarked) ? Thanks!
Given back: 103

Asked: Let me know recorded inhibition at 10 µM for Cc1cc(S(=O)(=O)N2CCCCC2CCC(=O)N2CCn3c(CN4CCN(C)CC4)ccc3C2)c(C)cc1Cl (centres unmarked) , thanks.
Given back: 51

* * *

# tgt: human B1R receptor (hB1R) (Homo sapiens, UniProt P46663)
# Construct: host or cells: CHO K1 cells
# Sequence (P46663 1-353): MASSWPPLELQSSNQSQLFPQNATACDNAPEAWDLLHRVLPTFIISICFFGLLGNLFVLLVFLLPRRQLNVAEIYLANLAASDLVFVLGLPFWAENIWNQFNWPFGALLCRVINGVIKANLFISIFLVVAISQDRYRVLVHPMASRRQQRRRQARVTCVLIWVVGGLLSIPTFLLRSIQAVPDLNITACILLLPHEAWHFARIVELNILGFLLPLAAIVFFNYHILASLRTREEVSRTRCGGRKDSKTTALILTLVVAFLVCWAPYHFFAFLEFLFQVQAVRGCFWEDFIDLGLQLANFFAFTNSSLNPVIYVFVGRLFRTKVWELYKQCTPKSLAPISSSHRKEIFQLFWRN
# experiment-summary: FLIPR Ca2+ assay (Fluo-4) on CHO K1 cells stably transfected with the human B1R gene
# Assay type: cell-based
# test-context: CHO-K1; test substance 10 μM; agonist Lys-Des-Arg9-bradykinin 0.5 nM; % inhibition compared to the maximum achievable inhibition
reported-property: inhibition at 10 µM (%)
The reply should be a number in %, with the unit left off.

Examples with answers:
Cc1cc(C)c(S(=O)(=O)N2CCCCC2COCC(=O)N2CCn3c(CN4CCOCC4)ccc3C2c2ccccc2)c(C)c1 (stereo not drawn)    103
COc1cc(C)c(S(=O)(=O)N2CCCCC2CCCC(=O)N2CCn3c(CCc4ccncc4)ccc3C2)c(C)c1 (stereo not drawn)    95
Cc1cc(C)c(S(=O)(=O)N2CCCCC2COCC(=O)N2CCn3cccc3C2c2ccccc2)c(C)c1 (stereo not drawn)    77

Asked: Could you please provide reported inhibition at 10 µM for COc1cc(C)c(S(=O)(=O)N2CCCCC2CCC(=O)N2CCn3c(CCc4cccnc4)ccc3C2)c(C)c1 (stereo not drawn) ? Thanks!
Given back: 86

Asked: Consider the molecule COc1cc(C)c(S(=O)(=O)N2CCCCC2COCC(=O)N2CCn3c(CN(C)C)ccc3C2c2ccccc2)c(C)c1 (stereo not drawn) and give its recorded inhibition at 10 µM.
Given back: 102

Asked: Supply inhibition at 10 µM value. Item: CN1CCN(CCCc2ccc3n2CCN(C(=O)COCC2CCc4ccccc4N2S(=O)(=O)c2ccc(Cl)c(Cl)c2)C3)CC1 (stereo not drawn)
Given back: 48

Asked: Supply measured inhibition at 10 µM of COc1cc(C)c(S(=O)(=O)N2CCCCC2COCC(=O)N2CCn3c(CN4CCCC4)ccc3C2)c(C)c1 (stereo not drawn) in your reply.
Given back: 102

Asked: Respond only with inhibition at 10 µM recorded for COc1cc(C)c(S(=O)(=O)N2CCCCC2COCC(=O)N2CCn3cccc3C2c2ccc(C)c(C)c2)c(C)c1 (stereo not drawn)
Given back: 66

* * *

Catalogue of inhibition at 10 µM readings, one per entry.
# tgt: human B1R receptor (hB1R) (Homo sapiens)
# Construct: host or cells: CHO K1 cells
# Sequence (P46663 1-353): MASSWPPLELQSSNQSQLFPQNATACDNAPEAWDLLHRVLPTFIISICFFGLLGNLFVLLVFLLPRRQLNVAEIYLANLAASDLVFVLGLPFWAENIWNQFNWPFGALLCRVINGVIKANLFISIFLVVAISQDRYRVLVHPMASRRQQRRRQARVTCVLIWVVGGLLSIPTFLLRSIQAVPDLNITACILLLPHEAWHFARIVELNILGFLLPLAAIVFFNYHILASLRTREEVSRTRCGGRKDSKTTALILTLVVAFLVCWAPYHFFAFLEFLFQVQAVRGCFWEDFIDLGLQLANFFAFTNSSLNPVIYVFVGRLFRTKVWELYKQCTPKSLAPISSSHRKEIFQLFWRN
# experiment-summary: FLIPR Ca2+ assay (Fluo-4) on CHO K1 cells stably transfected with the human B1R gene
# Type: cell-based
# test-context: CHO-K1; test substance 10 μM; agonist Lys-Des-Arg9-bradykinin 0.5 nM; % inhibition compared to the maximum achievable inhibition
// note: answer is a bare numeric in %

COc1cc(C)c(S(=O)(=O)N2CCCCC2CCCC(=O)N2CCn3c(ccc3-c3cccnc3)C2)c(C)c1 (centres unmarked) [(92)]    91

Asked: Please respond with reported inhibition at 10 µM (system human B1R receptor (hB1R) (Homo sapiens)) for COc1cc(C)c(S(=O)(=O)N2CCCCC2COCC(=O)N2CCn3c(ccc3-c3cccnc3)C2)c(C)c1 (centres unmarked) [(89)] .
Given back: 99

Asked: Identify measured inhibition at 10 µM obtained with human B1R receptor (hB1R) (Homo sapiens) for COc1cc(C)c(S(=O)(=O)N2CCCCC2COCC(=O)N2CCn3c(CN(C)C)ccc3C2c2cccs2)c(C)c1 (centres unmarked) [(68)] .
Given back: 102

Asked: Enter inhibition at 10 µM (test system human B1R receptor (hB1R) (Homo sapiens)) for Cc1cc(C)c(S(=O)(=O)N2CCCCC2COCC(=O)N2CCn3cccc3C2c2ccc(F)c(F)c2)c(C)c1 (centres unmarked) [(40)]
Given back: 38

Asked: // fetch inhibition at 10 µM; item: COc1cc(C)c(S(=O)(=O)N2CCCCC2COCC(=O)N2CCn3cccc3C2CCc2ccccc2)c(C)c1 (centres unmarked) [(60)] ; system: human B1R receptor (hB1R) (Homo sapiens)
Given back: 87

Asked: Write down measured inhibition at 10 µM (human B1R receptor (hB1R) (Homo sapiens)) for this compound. CCC1c2cccn2CCN1C(=O)COCC1CCCCN1S(=O)(=O)c1c(C)cc(OC)cc1C (centres unmarked) [(70)]
Given back: 102

Asked: Print human B1R receptor (hB1R) (Homo sapiens) inhibition at 10 µM for Cc1cc(C)c(S(=O)(=O)N2CCCCC2COCC(=O)N2CCn3cccc3C2c2cccnc2)c(C)c1 (centres unmarked) [(35)] .
Given back: 100

Asked: Provide inhibition at 10 µM, tested on human B1R receptor (hB1R) (Homo sapiens), for COc1cc(C)c(S(=O)(=O)N2CCCCC2COCC(=O)N2CCn3cccc3C2c2ccc(Cl)nc2)c(C)c1 (centres unmarked) [(22)] .
Given back: 102

* * *

inhibition at 10 µM overview
# tgt: human B1R receptor (hB1R) (Homo sapiens, UniProt P46663)
# Construct: host or cells: CHO K1 cells
# experiment-summary: FLIPR Ca2+ assay (Fluo-4) on CHO K1 cells stably transfected with the human B1R gene
# Type: cell-based
# test-context: CHO-K1; test substance 10 μM; agonist Lys-Des-Arg9-bradykinin 0.5 nM; % inhibition compared to the maximum achievable inhibition
Give the value, in units of %, as a plain number.

O=C(CC1CCCCN1S(=O)(=O)c1cccc(C(F)(F)F)c1)N1CCn2c(Cc3ccncc3)ccc2C1 (stereo not shown) [(90)]    25
COc1cc(C)c(S(=O)(=O)N2CCCCC2CCC(=O)N2CCn3c(ccc3-c3ccncc3)C2)c(C)c1 (stereo not shown) [(96)]    61
COc1cc(C)c(S(=O)(=O)N2CCCCC2CCC(=O)N2CCn3cc(Cc4ccncc4)nc3C2)c(C)c1 (stereo not shown) [(121)]    66

Switching to the query record.
Asked: For the compound CN1CCN(CCCc2ccc3n2CCN(C(=O)CC2CCCCN2S(=O)(=O)c2cccc(C(F)(F)F)c2)C3)CC1 (stereo not shown) [(15)] , give its reported inhibition at 10 µM.
Given back: 46
